All figures here come from ChEMBL document CHEMBL1275573.

Experimental Details: Selectivity index, ratio of EC50 for Epstein-Barr virus P3HR-1 to CC50 for human daudi cell
Assay Metric: Selectivity Index

Recorded Selectivity Index, per entry:
>>> test_value("Nc1nc(=O)n(CCOCP(=O)(O)O)cc1Br")
1.1
>>> test_value("CCCCCCCCCCCCCCCCOCCCOP(=O)(O)COCCn1cnc2c(NC3CC3)nc(N)nc21")
">71000"

Form: compound = `CCCCCCCCCCCCCCCCOCCCOP(=O)(O)COCCn1cc(F)c(N)nc1=O` ; Selectivity Index = >77

Form: compound = `Nc1nc(N)c2ncn(CCOCP(=O)(O)O)c2n1` ; Selectivity Index = >42

Form: compound = `CCCCCCCCCCCCCCCCOCCCOP(=O)(O)COCCn1cc(Br)c(N)nc1=O` ; Selectivity Index = >3400

---

Experimental Details: Cytotoxicity against human HFF cells
Assay type: cell-based
hey, just use Met if measured CC50 is less than 200 µM, otherwise Not met

Below are worked cases with known answers.
>>> class_name("Nc1ccn(CCOCP(=O)(O)O)c(=O)n1")
"Not met"
>>> class_name("CCCCCCCCCCCCCCCCOCCCOP(=O)(O)COCCn1cc(Br)c(N)nc1=O")
"Met"
>>> class_name("CCCCCCCCCCCCCCCCOCCCOP(=O)(O)COCCn1cnc2c(NC3CC3)nc(N)nc21")
"Met"

Now for another entry.
Q: CC50 strictly < 200 µM for this molecule? `Nc1nc(N)c2ncn(CCOCP(=O)(O)O)c2n1`
A: Met

---

Experimental Details: Antiviral activity against Murine cytomegalovirus Smith infected in HFF cells by plaque reduction assay
Type: functional, cell-based, Murine cytomegalovirus (strain Smith)
Setup Conditions: Murid betaherpesvirus 1, HFF
Assay Metric: EC50 (nM)
Please give a number only; it is taken to be in nM.

Recorded EC50, per entry:
>>> test_value("CCCCCCCCCCCCCCCCOCCCOP(=O)(O)COCCn1cnc2c(N)nc(N)nc21")
500
>>> test_value("CCCCCCCCCCCCCCCCOCCCOP(=O)(O)COCCn1cc(F)c(N)nc1=O")
80
>>> test_value("Nc1ccn(CCOCP(=O)(O)O)c(=O)n1")
63000

With those in mind, consider the next compound.
Form: compound = `CCCCCCCCCCCCCCCCOCCCOP(=O)(O)COCCn1cc(Br)c(N)nc1=O` ; EC50 = 1300

---

Experimental Details: Cytotoxicity against human HSB2 cell after 4 hrs by MTS assay
Type: functional
Setup Conditions: CCRF-HSB-2, 4 h
hey, just use label 1 if measured CC50 is less than 4 µM, otherwise label 0

>>> class_name("Nc1nc(NC2CC2)c2ncn(CCOCP(=O)(O)O)c2n1")
"label 1"
>>> class_name("Nc1nc(N)c2ncn(CCOCP(=O)(O)O)c2n1 [PMEDAP]")
"label 0"

Q: CC50 strictly < 4 µM for this molecule? `CCCCCCCCCCCCCCCCOCCCOP(=O)(O)COCCn1cnc2c(N)nc(N)nc21`
A: label 0

Q: CC50 strictly < 4 µM for this molecule? `CCCCCCCCCCCCCCCCOCCCOP(=O)(O)COCCn1cc(Br)c(N)nc1=O`
A: label 0

Q: CC50 strictly < 4 µM for this molecule? `CCCCCCCCCCCCCCCCOCCCOP(=O)(O)COCCn1ccc(N)nc1=O`
A: label 0

Q: CC50 strictly < 4 µM for this molecule? `Nc1ccn(CCOCP(=O)(O)O)c(=O)n1`
A: label 0

Q: CC50 strictly < 4 µM for this molecule? `CCCCCCCCCCCCCCCCOCCCOP(=O)(O)COCCn1cc(F)c(N)nc1=O`
A: label 0

Q: CC50 strictly < 4 µM for this molecule? `CCCCCCCCCCCCCCCCOCCCOP(=O)(O)COCCn1cnc2c(NC3CC3)nc(N)nc21`
A: label 1

Q: CC50 strictly < 4 µM for this molecule? `Nc1nc(=O)n(CCOCP(=O)(O)O)cc1F`
A: label 0
